# protocol: recombinant UMI read abundance after kanamycin selection (control-corrected) (log10(CPM+1)); higher = more efficient recombination; extreme values may be limits of the assay; sequences stand for … in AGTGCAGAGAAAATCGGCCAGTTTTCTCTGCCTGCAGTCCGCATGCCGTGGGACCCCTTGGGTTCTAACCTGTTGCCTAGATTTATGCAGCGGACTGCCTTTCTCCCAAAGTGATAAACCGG…AGGTTGGTTTCACT; site = the 11-nt donor
property-name: recombinant UMI read abundance (log10)
Form rule: numeric answer, no unit written next to it.

Example entries and their recorded answers appear below.
GGGACAACATGGACCGGTTTTCCCGGTAATCCGTATTTGTG (site GGGACAACTCA) = 0.439
ACTGTGTCATGGACCGGTTTTCCCGGTAATCCGTATTTGCA (site ACAGTATCTTG) = 2.5
CCGAGCGCATGGACCGGTTTTCCCGGTAATCCGTATTTGAA (site CCGAGCGCTTT) = 0.998
TGAGTCACATGGACCGGTTTTCCCGGTAATCCGTATTTGAC (site TGAGTCACTGT) = 2.61
CCGCGCACATGGACCGGTTTTCCCGGTAATCCGTATTTGTT (site CCGCGCACTAA) = 0.0199

Briefly, recombinant UMI read abundance (log10) measured for CTATACACATGGACCGGTTTTCCCGGTAATCCGTATTTGCT (site CTATACACTAG) : 2.38

Briefly, recombinant UMI read abundance (log10) measured for ACATTATCATGGACCGGTTTTCCCGGTAATCCGTATTTGCC (site ACAGTATCTTG) : 0

Briefly, recombinant UMI read abundance (log10) measured for CACCGTCCATGGACCGGTTTTCCCGGTAATCCGTATTTGAT (site AACCGTCCTAT) : 0.117

====

# protocol: recombinant barcode read abundance after kanamycin selection (control-corrected) (log10(CPM+1)); higher = more efficient recombination; sequences stand for … in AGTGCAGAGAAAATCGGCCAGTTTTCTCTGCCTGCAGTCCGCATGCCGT…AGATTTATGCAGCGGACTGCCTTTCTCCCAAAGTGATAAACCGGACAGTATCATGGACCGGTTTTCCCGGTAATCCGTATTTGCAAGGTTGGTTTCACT; site = the 11-nt target
Lab note: anything with recombinant barcode read abundance (log10) at or over 0.1 counts as 1; the rest go in 0.

For orientation, consider the following solved cases.
TCTCTGCCTTGGGTTCTAACCTGTTGCCT (site TCTCAGCCTAG) = 1
ATGCAAACTTGGGTTCTAACCTGTTGCCT (site ATGCAAACTAG) = 1
CAAGTAGCTTGGGTTCTAACCTGTTGCCT (site CAAGTTGCTAG) = 0
AGCTAAACTTGGGTTCTAACCTGTTGCCT (site AGCTTATCTAG) = 1
GTCCGCTCTTGGGTTCTAACCTGTTGCCT (site GTCCGCTCTAG) = 1

Please indicate if the recorded recombinant barcode read abundance (log10) for GCCTTGGCTTGGGTTCTAACCTGTTGCCT (site GCCTGGGCTAG) meets or exceeds 0.1.
1

Please indicate if the recorded recombinant barcode read abundance (log10) for AGGATATCTTGGGTTCTAACCTGTTGCCT (site AAGATATCTAG) meets or exceeds 0.1.
1

Please indicate if the recorded recombinant barcode read abundance (log10) for ATCACGCCTTGGGTTCTAACCTGTTGCCT (site ACCACGCCTAG) meets or exceeds 0.1.
1

Please indicate if the recorded recombinant barcode read abundance (log10) for CTCTAAACTTGGGTTCTAACCTGTTGCCA (site CTCTATACTTG) meets or exceeds 0.1.
0

====

# protocol: recombinant UMI read abundance after kanamycin selection (control-corrected) (log10(CPM+1)); higher = more efficient recombination; extreme values may be limits of the assay; sequences stand for … in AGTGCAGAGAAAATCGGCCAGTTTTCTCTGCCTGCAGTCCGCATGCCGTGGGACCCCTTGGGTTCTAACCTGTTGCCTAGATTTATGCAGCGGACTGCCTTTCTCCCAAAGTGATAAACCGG…AGGTTGGTTTCACT; site = the 11-nt donor
property-name: recombinant UMI read abundance (log10)
Form rule: numeric answer, no unit written next to it.

Example entries and their recorded answers appear below.
CCCCACACATGGACCGGTTTTCCCGGTAATCCGTATTTGTA (site CCGCACACTTA) = 0.021
AACGTGTCATGGACCGGTTTTCCCGGTAATCCGTATTTGAC (site AAAGTGTCTGT) = 0
CGTTAGACATGGACCGGTTTTCCCGGTAATCCGTATTTGAG (site CTTTAGACTCT) = 0.00778
TAAAGTCCATGGACCGGTTTTCCCGGTAATCCGTATTTGTA (site TGAAGTCCTTA) = 0.00382

Briefly, recombinant UMI read abundance (log10) measured for GTAGCCGCATGGACCGGTTTTCCCGGTAATCCGTATTTGCG (site GTAGGCGCTCG) : 0.0284

Briefly, recombinant UMI read abundance (log10) measured for GGTATGTCATGGACCGGTTTTCCCGGTAATCCGTATTTGTT (site GGTATGTCTAA) : 0.586

Briefly, recombinant UMI read abundance (log10) measured for TCATCCTCATGGACCGGTTTTCCCGGTAATCCGTATTTGCA (site TCATTCTCTTG) : 0

Briefly, recombinant UMI read abundance (log10) measured for ATAAGGCCATGGACCGGTTTTCCCGGTAATCCGTATTTGAA (site ATAAGGCCTCT) : 0.0201

Briefly, recombinant UMI read abundance (log10) measured for GCGACCACATGGACCGGTTTTCCCGGTAATCCGTATTTGTT (site GCGACCACTAA) : 0.823

====

recombinant barcode read abundance (log10) values for the sequences below.
# protocol: recombinant barcode read abundance after kanamycin selection (control-corrected) (log10(CPM+1)); higher = more efficient recombination; sequences stand for … in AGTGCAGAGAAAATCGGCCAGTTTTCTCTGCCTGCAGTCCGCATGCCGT…ATTTATGCAGCGGACTGCCTTTCTCCCAAAGTGATAAACCGGACAGTATCATGGACCGGTTTTCCCGGTAATCCGTATTTGCAAGGTTGGTTTCACT; site = the 11-nt target

Example entries and their recorded answers appear below.
GGCTCCCCTTGGGTTCTAACCTGTTGCGGGA [GGCTCCCCTCC_LTGcore_CT_RTGcore_TC] (site GGCTCCCCTCC) (LTG core: CT, RTG core: TC) = 0.302
GTCGCCCGATGGGTTCTAACCTGTTGCTATC [GTCGCCCCTTA_LTGcore_GA_RTGcore_GA] (site GTCGCCCCTTA) (LTG core: GA, RTG core: GA) = 0.103

Briefly, recombinant barcode read abundance (log10) measured for AGGCCTCCGTGGGTTCTAACCTGTTGCCTCG [AGGCCTCCTAG_LTGcore_CG_RTGcore_CG] (site AGGCCTCCTAG) (LTG core: CG, RTG core: CG) : 0.0742

====

# protocol: recombinant barcode read abundance after kanamycin selection (control-corrected) (log10(CPM+1)); higher = more efficient recombination; sequences stand for … in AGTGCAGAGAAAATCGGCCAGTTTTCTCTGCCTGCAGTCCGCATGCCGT…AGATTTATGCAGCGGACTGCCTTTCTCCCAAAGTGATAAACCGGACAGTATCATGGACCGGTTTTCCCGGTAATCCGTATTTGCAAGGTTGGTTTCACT; site = the 11-nt target
Would you mind classing the entries by recombinant barcode read abundance (log10)? Ranges: category 1: < 0.2; category 2: ≥ 0.2 and < 0.5; category 3: ≥ 0.5

CATTGCCCTTGGGTTCTAACCTGTTGCCT (site CGTTGCCCTAG) = category 2
CTCTCGTCTTGGGTTCTAACCTGTTGCTT (site CTCTCGTCTAC) = category 3
TTGGGTCCTTGGGTTCTAACCTGTTGCGT (site TTGAGTCCTAG) = category 1
CTCGGATCTTGGGTTCTAACCTGTTGCTA (site CTCGGATCTTA) = category 3
CGTAATGCTTGGGTTCTAACCTGTTGCCT (site CGAAATGCTAG) = category 1

Next item in the queue.
Record GCACCTGCTTGGGTTCTAACCTGTTGCCT (site GCACCTGCTAG) — which class?
category 3

====

# protocol: recombinant UMI read abundance after kanamycin selection (control-corrected) (log10(CPM+1)); higher = more efficient recombination; extreme values may be limits of the assay; sequences stand for … in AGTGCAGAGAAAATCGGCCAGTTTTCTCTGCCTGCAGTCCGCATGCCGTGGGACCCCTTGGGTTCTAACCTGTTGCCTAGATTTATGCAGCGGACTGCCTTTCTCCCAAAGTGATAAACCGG…AGGTTGGTTTCACT; site = the 11-nt donor
property-name: recombinant UMI read abundance (log10)
Form rule: numeric answer, no unit written next to it.

Example entries and their recorded answers appear below.
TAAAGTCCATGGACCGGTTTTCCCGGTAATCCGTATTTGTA (site TAAACTCCTTA) = 0.531
CGATCAACATGGACCGGTTTTCCCGGTAATCCGTATTTGTT (site CGATCCACTAA) = 0.0118
GTTAGAACATGGACCGGTTTTCCCGGTAATCCGTATTTGGC (site GTTAGAACTGG) = 0
TGGCCAGCATGGACCGGTTTTCCCGGTAATCCGTATTTGGC (site TGGCCAGCTGC) = 0
CGATCATCATGGACCGGTTTTCCCGGTAATCCGTATTTGCT (site CGATCGTCTAG) = 0

Briefly, recombinant UMI read abundance (log10) measured for TAGAATACATGGACCGGTTTTCCCGGTAATCCGTATTTGCA (site TAAAATACTTG) : 0.792

Briefly, recombinant UMI read abundance (log10) measured for ATAAGGTCATGGACCGGTTTTCCCGGTAATCCGTATTTGAC (site ATAAGGCCTGT) : 1.04

Briefly, recombinant UMI read abundance (log10) measured for CGAGGATCATGGACCGGTTTTCCCGGTAATCCGTATTTGGG (site CGAGGAACTCC) : 0.0163

Briefly, recombinant UMI read abundance (log10) measured for AGAGCCCCATGGACCGGTTTTCCCGGTAATCCGTATTTGCA (site AGAGCCCCTTG) : 1.71

Briefly, recombinant UMI read abundance (log10) measured for CGGAATCCATGGACCGGTTTTCCCGGTAATCCGTATTTGTT (site CTGAACCCTAA) : 0.0207

Briefly, recombinant UMI read abundance (log10) measured for ACCTAGACATGGACCGGTTTTCCCGGTAATCCGTATTTGCG (site ACCTAGACTCC) : 0.0218

Briefly, recombinant UMI read abundance (log10) measured for CCGGCAGCATGGACCGGTTTTCCCGGTAATCCGTATTTGTA (site CCGGCAGCTTA) : 0.665

Briefly, recombinant UMI read abundance (log10) measured for TAAACTCCATGGACCGGTTTTCCCGGTAATCCGTATTTGTA (site TAAACTCCTTA) : 1.32
